# Lookup of reported pIC50 keyed by entry
# target.of.assay: wildtype Kras / hSOS1 (Homo sapiens)
# Construct: made in house; host or cells: E. coli BL21 (DE3)
# method.summary: HTRF assay, wildtype Kras / SOS1 interaction
# Type: binding
# conditions.used: compound nos. 401-703; read-out: IC50 against wildtype Kras
pIC50: −log10 of the molar value.

- compound: "CN1CCC[C@H]1COc1nc(N2CCCC(NS(C)(=O)=O)CC2)c2cc(Cl)c(-c3cccc4sc(N)nc34)c(F)c2n1 (stereo partly drawn)"
  measurement.name: "pIC50"
  test.value: "> 6.30"

# ---- query compound ----
Q: Endpoint output: pIC50 of N#Cc1c(N)sc2cc(F)cc(-c3c(Cl)cc4c(N5CC6CCC(C5)N6)nc(OC[C@@]56CCCN5C[C@H](F)C6)nc4c3F)c12 . Value?
Ans: > 6.30

----------
# target.of.assay: wildtype Kras / hSOS1 (Homo sapiens, UniProt P01116)
# Construct: made in house; host or cells: E. coli BL21 (DE3)
# Sequence (P01116 1-188 isoform P01116-2): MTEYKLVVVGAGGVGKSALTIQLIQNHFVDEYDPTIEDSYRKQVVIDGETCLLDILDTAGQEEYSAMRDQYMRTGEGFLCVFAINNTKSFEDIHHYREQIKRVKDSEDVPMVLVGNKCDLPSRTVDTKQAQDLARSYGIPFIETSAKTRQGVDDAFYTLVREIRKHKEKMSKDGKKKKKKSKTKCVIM
# method.summary: HTRF assay, wildtype Kras / SOS1 interaction
# Type: binding
# conditions.used: compound nos. 102-196, general methodology of example 5; read-out: IC50 against wildtype Kras
pIC50: −log10 of the molar value.
measurement.name: pIC50

// worked examples, pIC50 included
- molecule: "Nc1nc2c(-c3c(Cl)cc4c(N5CCOCC(N)C5)nc(OCC56CCCN5CCC6)nc4c3F)ccc(F)c2s1 (centres unmarked) [Compound 165]"
  target.of.assay: "wildtype Kras / hSOS1 (Homo sapiens, UniProt P01116)"
  test.value: "> 6.30"
- molecule: "Cc1ccnc(C(C)C)c1-n1c(=O)nc(N2CCNCC(F)(F)C2)c2cc(F)c(-c3c(O)cccc3F)nc21 [Compound 195]"
  target.of.assay: "wildtype Kras / hSOS1 (Homo sapiens, UniProt P01116)"
  test.value: "< 6.30"
- molecule: "Cc1cc(N)nc(-c2c(Cl)cc3c(N4CCNCC(F)(F)C4)nc(OC[C@@H]4CCCN4C)nc3c2F)c1 [Compound 189]"
  target.of.assay: "wildtype Kras / hSOS1 (Homo sapiens, UniProt P01116)"
  test.value: "< 6.30"
- molecule: "CN1CCC[C@H]1COc1nc(N2CC3CNCC3C2)c2cc(Cl)c(-c3cccc4sc(N)nc34)c(F)c2n1 (some centres unmarked) [Compound 144]"
  target.of.assay: "wildtype Kras / hSOS1 (Homo sapiens, UniProt P01116)"
  test.value: "< 6.30"
- molecule: "CO[C@H]1C[C@@H](COc2nc(N3CCNCC(F)(F)C3)c3cc(Cl)c(-c4cccc5sc(N)nc45)c(F)c3n2)N(C)C1 [Compound 126]"
  target.of.assay: "wildtype Kras / hSOS1 (Homo sapiens, UniProt P01116)"
  test.value: "> 6.30"
- molecule: "Cc1ccc2cnn(C)c2c1-c1c(Cl)cc2c(N3CCCCC(F)(F)C3)nc(OC[C@@]34CCCN3C[C@H](F)C4)nc2c1F [Compound 179]"
  target.of.assay: "wildtype Kras / hSOS1 (Homo sapiens, UniProt P01116)"
  test.value: "< 6.30"

Q: Endpoint output: pIC50 of Nc1nc2c(-c3c(Cl)cc4c(N5CCCCC(F)(F)C5)nc(OCC56CCCN5CCC6)nc4c3F)ccc(F)c2s1 [Compound 117] . Value?
Ans: > 6.30

Q: Endpoint output: pIC50 of CN1CCC[C@H]1COc1nc(N2C3CCNCC2CC3)c2cc(Cl)c(-c3cccc4sc(N)nc34)c(F)c2n1 (some centres unmarked) [Compound 180] . Value?
Ans: < 6.30

Q: Endpoint output: pIC50 of CN1CCC(COc2nc(N3CCNCC(F)(F)C3)c3cc(Cl)c(-c4cccc5sc(N)nc45)c(F)c3n2)CC1 [Compound 134] . Value?
Ans: > 6.30

----------
# target.of.assay: GST-tagged K-Ras mutant / His-tagged hSOS1 (Homo sapiens, UniProt P01116)
# Sequence (P01116 whole entry G12D, form open): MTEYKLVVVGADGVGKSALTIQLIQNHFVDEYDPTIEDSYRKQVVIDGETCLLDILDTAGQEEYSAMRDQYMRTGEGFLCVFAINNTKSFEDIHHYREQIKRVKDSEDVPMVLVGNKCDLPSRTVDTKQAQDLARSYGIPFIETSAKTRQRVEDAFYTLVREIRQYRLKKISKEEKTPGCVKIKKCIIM
# method.summary: HTRF assay, K-Ras mutant / SOS1 interaction
# Format: binding
# conditions.used: compound nos. 401-703; read-out: IC50 against mutant Kras
pIC50: −log10 of the molar value.
# Lookup of reported pIC50 keyed by entry

// worked examples, pIC50 included
- compound: "Fc1c(N2CCc3ccccc32)ccc2c(N3CCCCCC3)nc(OCC34CCCN3CCC4)nc12"
  target.of.assay: "GST-tagged K-Ras mutant / His-tagged hSOS1 (Homo sapiens, UniProt P01116)"
  pIC50: "< 6.30"
- compound: "Oc1cc(N2CCc3nc(OCC45CCCN4CCC5)nc(N4C[C@H]5CC[C@@H](C4)N5)c3CC2)c2ccccc2c1"
  target.of.assay: "GST-tagged K-Ras mutant / His-tagged hSOS1 (Homo sapiens, UniProt P01116)"
  pIC50: "< 6.30"
- compound: "Nc1nc2ccccc2c(-c2ccc3c(N4CC5CCC(C4)N5)nc(OCC45CCCN4CCC5)nc3c2F)c1Cl"
  target.of.assay: "GST-tagged K-Ras mutant / His-tagged hSOS1 (Homo sapiens, UniProt P01116)"
  pIC50: "< 6.30"

# ---- query compound ----
Q: Endpoint output: pIC50 of Nc1nc2c(-c3c(Cl)cc4c(N5CCCC(CO)CC5)nc(OC[C@@]56CCCN5C[C@H](F)C6)nc4c3F)ccc(F)c2s1 (stereo partly shown) . Value?
Ans: > 6.30

----------
# Lookup of reported pIC50 keyed by entry
# target.of.assay: wildtype Kras / hSOS1 (Homo sapiens, UniProt P01116)
# Construct: made in house; host or cells: E. coli BL21 (DE3)
# method.summary: HTRF assay, wildtype Kras / SOS1 interaction
# Assay type: binding
# conditions.used: compound nos. 102-196, general methodology of example 5; read-out: IC50 against wildtype Kras
pIC50: −log10 of the molar value.

Q: Endpoint output: pIC50 of CN1CCC[C@H]1COc1nc(N2CC3CCNC3C2)c2cc(Cl)c(-c3cccc4sc(N)nc34)c(F)c2n1 (stereo partly shown) [Compound 124] . Value?
Ans: < 6.30

----------
# target.of.assay: GST-tagged K-Ras mutant / His-tagged hSOS1 (Homo sapiens)
# method.summary: HTRF assay, K-Ras mutant / SOS1 interaction
# Type: binding
# conditions.used: compound nos. 102-196, general methodology of example 5; read-out: IC50 against mutant Kras
pIC50: −log10 of the molar value.
# Lookup of reported pIC50 keyed by entry

// worked examples, pIC50 included
- molecule: "CN1C[C@H](F)C[C@H]1COc1nc(N2CCNCC(F)(F)C2)c2cc(Cl)c(-c3cccc4sc(N)nc34)c(F)c2n1 [Compound 146]"
  target.of.assay: "GST-tagged K-Ras mutant / His-tagged hSOS1 (Homo sapiens)"
  test.value: "> 6.30"
- molecule: "CN1CCN(c2nc(OC[C@@H]3CCCN3C)nc3c(F)c(-c4cccc5sc(N)nc45)c(Cl)cc23)CC(F)(F)C1 [Compound 123]"
  target.of.assay: "GST-tagged K-Ras mutant / His-tagged hSOS1 (Homo sapiens)"
  test.value: "< 6.30"
- molecule: "CN1CCC[C@H]1COc1nc(N2CCCCC(F)C2)c2cc(Cl)c(-c3cccc4sc(N)nc34)c(F)c2n1 (some centres unmarked) [Compound 181]"
  target.of.assay: "GST-tagged K-Ras mutant / His-tagged hSOS1 (Homo sapiens)"
  test.value: "> 6.30"

# ---- query molecule ----
Q: Requested read-out pIC50, target or system GST-tagged K-Ras mutant / His-tagged hSOS1 (Homo sapiens), entry CN1CCC[C@H]1COc1nc(N2CCCNCC(F)(F)C2)c2cc(Cl)c(-c3cccc4sc(N)nc34)c(F)c2n1 [Compound 127]
Ans: > 6.30

----------
# Lookup of reported IC50 keyed by entry
# target.of.assay: GST-tagged K-Ras mutant / His-tagged hSOS1 (Homo sapiens)
# method.summary: HTRF assay, K-Ras mutant / SOS1 interaction
# Type: binding
# conditions.used: compound nos. 102-196, general methodology of example 5; read-out: IC50 against mutant Kras

- molecule: "N#CCC1CNCCN(c2nc(OCC34CCCN3CCC4)nc3c(F)c(-c4ccc(F)c5sc(N)nc45)c(Cl)cc23)C1 (stereo not drawn) [Compound 187]"
  IC50: "< 500 nM"
- molecule: "CN1CCC[C@H]1COc1nc(N2CCNC(=O)C(F)(F)C2)c2cc(Cl)c(-c3ccc(F)c4sc(N)nc34)c(F)c2n1 [Compound 112]"
  IC50: "< 500 nM"

# ---- query molecule ----
Q: Endpoint output: IC50 of CN1C[C@@H](F)C[C@H]1COc1nc(N2CCNCC(F)(F)C2)c2cc(Cl)c(-c3cccc4sc(N)nc34)c(F)c2n1 [Compound 130] . Value?
Ans: > 500 nM

Cited source: patent US20240254129A1
